Data credit: paper PMC10223356

Kindly state solubility at 1 min for each of the entries shown.
assay: Solubility assay in PBS by UV light scattering (precipitation point); format: physicochemical; conditions: PBS (phosphate-buffered saline), aqueous buffer, kinetic from dmso stock; PBS solution pH = 7.4, 37 °C, mean ± SEM (n = 3)
Give bare numbers, in µM.

Please state, for each entry, its recorded solubility at 1 min.
1. Cc1c(C(=O)c2ccccc2)cc(C(=O)NCc2ccc(Cl)cc2)n1Cc1ccc(Cl)cc1
2. Cc1ccc(Cn2c(C(=O)NCc3ccc(Cl)cc3)cc(C(=O)c3ccccc3)c2C)cc1
3. COc1ccc(C2=N[C@H](c3ccc(Cl)cc3)[C@H](c3ccc(Cl)cc3)N2C(=O)N2CCNC(=O)C2)c(OC(C)C)c1 [nutlin-3a, reference compound]

### Response
3.5
3.1
2.4
